Provenance of the data: paper PMC7245249

A collection of compounds and their measured pEC50
# System: Human coronavirus OC43
# Protocol Description: microbe, parasite or virus in culture
# Type: cell-based, Human coronavirus OC43 (HCoV-OC43)
# Reported Conditions: Betacoronavirus 1, OC43, HCT-8, 72 h, read-out: EC50 (IFA), Human coronavirus OC43
The scale used: pEC50 is minus the common logarithm of the concentration in molar units.

These solved cases illustrate the format of a correct answer.
- Compound: "CC(=O)Oc1ccccc1C(=O)Nc1ncc([N+](=O)[O-])s1 [Nitazoxanide]"
  Measured Endpoint: "pEC50"
  Readout Number: 4.54
- Compound: "CC[C@H]1CN2CCc3cc(OC)c(OC)cc3[C@@H]2C[C@@H]1C[C@H]1NCCc2cc(OC)c(OC)cc21 [Emetine]"
  Measured Endpoint: "pEC50"
  Readout Number: 6.68

# evaluate next
pEC50 reported for this compound CCCCCC[C@H]1C(=O)O[C@H](C)[C@H](NC(=O)c2cccc(NC=O)c2O)C(=O)O[C@@H](C)[C@@H]1OC(=O)CC(C)C [Antimycin A] : 7.21

###

# System: Human coronavirus OC43
# Protocol Description: microbe, parasite or virus in culture
# Assay type: cell-based, Human coronavirus OC43 (HCoV-OC43)
# Reported Conditions: Betacoronavirus 1, OC43, HCT-8, 72 h, read-out: EC50 (IFA), Human coronavirus OC43
Structures can show the parent of a compound that is named as a salt.
Reported pEC50 values are given for each entry in this list.
Just so you know, pEC50 here is -log10 of the concentration in molar units; reply with that number alone.

Recorded pEC50, per entry:
- Compound: "COC(=O)C[C@](O)(CCCC(C)(C)O)C(=O)O[C@@H]1C(OC)=C[C@]23CCCN2CCc2cc4c(cc2[C@H]13)OCO4"
  Readout Number: 6.54
- Compound: "CC(C)[C@@H]1NC(=O)[C@H](C)OC(=O)[C@@H](C(C)C)NC(=O)[C@@H](C(C)C)OC(=O)[C@H](C(C)C)NC(=O)[C@H](C)OC(=O)[C@@H](C(C)C)NC(=O)[C@@H](C(C)C)OC(=O)[C@H](C(C)C)NC(=O)[C@H](C)OC(=O)[C@@H](C(C)C)NC(=O)[C@@H](C(C)C)OC1=O"
  Readout Number: 6.40

So for CCN(CC)CCCC(C)Nc1ccnc2cc(Cl)ccc12 (stereo not drawn) [Chloroquine (diphosphate), Chloroquine] , the logged pEC50 turned out to be 4.56

Per the records, this compound ( CCN(CC)CCOc1ccc2c(c1)C(=O)c1cc(OCCN(CC)CC)ccc1-2 [Tilorone (dihydrochloride), Tilorone] ) has pEC50 equal to 4.59

###

# Protocol Description: in vitro
# Reported Conditions: cat (Felis catus)
Structures can show the parent of a compound that is named as a salt.
Measured Endpoint: CC50

Please review the entries below; each comes with its answer.
- Molecule: "CCN(CC)CCCC(C)Nc1ccnc2cc(Cl)ccc12 (stereo not shown) [Chloroquine (diphosphate), Chloroquine]"
  Measured Endpoint: "CC50"
  Result: "37.5 µM"
- Molecule: "N#C[C@@]1(c2ccc3c(N)ncnn23)O[C@H](CO)[C@@H](O)[C@H]1O"
  Measured Endpoint: "CC50"
  Result: "> 100 µM"

Query `CS(=O)(=O)c1ccc(C(=O)Nc2ccc(Cl)c(-c3ccccn3)c2)c(Cl)c1` yields CC50 of > 100 µM

In plain terms, Nc1ccn([C@@H]2O[C@H](CO)[C@@H](O)C2(F)F)c(=O)n1 [Gemcitabine (Hydrochloride), Gemcitabine] has a documented CC50 of > 100 µM

Entry `Cc1nc2c([nH]1)-c1ccccc1N(C(=O)c1ccc(NC(=O)c3ccccc3-c3ccccc3)cc1)CC2` — recorded CC50 = > 100 µM

For reference, reported CC50 for `COC(=O)C[C@](O)(CCCC(C)(C)O)C(=O)O[C@@H]1C(OC)=C[C@]23CCCN2CCc2cc4c(cc2[C@H]13)OCO4` stands at 0.049 µM

Measured CC50 of CCCCCC[C@H]1C(=O)O[C@H](C)[C@H](NC(=O)c2cccc(NC=O)c2O)C(=O)O[C@@H](C)[C@@H]1OC(=O)CC(C)C [Antimycin A] : 81.9 µM
